These data points were gathered from patent US7989620B2.

# target_or_test_system: Recombinant human MMP 14 catalytic domain (Homo sapiens)
# Construct: Recombinant human MMP 14 catalytic domain
# test: Isolated enzyme assay MMP14
# measurement_setup: read-out: hMMP14 IC50
pIC50: −log10 of the molar value.
value_type: pIC50

>>> numeric_readout("Cc1ccc(C#CC2=CCN(S(=O)(=O)C[C@@]3(C)NC(=O)NC3=O)CC2)cc1 [reference compound]")
5.35
>>> numeric_readout("C[C@]1(CS(=O)(=O)N2CC=C(C#Cc3ccc(Cl)cc3)CC2)NC(=O)NC1=O [reference compound]")
5.37

---

# test: Determination of solubility in 0.1M phosphate buffer, pH 7.4
# measurement_setup: 20 °C, pH 7.4, aqueous buffer, thermodynamic from solid
value_type: solubility (µM)

Recorded solubility, per entry:
>>> numeric_readout("CCc1ncc(C#CC2=CCN(S(=O)(=O)C[C@@]3(C)NC(=O)NC3=O)CC2)cn1.O=C(O)C(F)(F)F")
91
>>> numeric_readout("C[C@]1(CS(=O)(=O)N2CC=C(C#Cc3ccc(Cl)cc3)CC2)NC(=O)NC1=O [reference compound]")
49

a. Cc1ccc(C#CC2=CCN(S(=O)(=O)C[C@@]3(C)NC(=O)NC3=O)CC2)cc1 [reference compound]
b. C[C@]1(CS(=O)(=O)N2CC=C(C#Cc3cnc(C4CC4)nc3)CC2)NC(=O)NC1=O
Query block: Which gives the smaller solubility number: a or b ? State the label of the item chosen.
Result block: a
(a: 72 µM, b: 396 µM)
